# assay-details: cAMP Responsive Elements (CRE) small molecule antagonists, cell-based qHTS assay: qHTS cell viability counter screen (AID 2060913); also: % is scaled to controls: 0 for no effect and ±100 for the full control effect; nearly all actives have a fitted effect of over 40% in size
# measurement-parameters: CRE-bla HEK293T viability, CellTiter-Glo luminescence, 5 h; series mostly up to 92.4 µM
Results filed as inconclusive are left out. Activity calls are given as the source filed them. Calls follow the shape of the dose curve; as a rule, active = well fitted cell-killing curve with a large enough effect in the repeat runs; inconclusive = weak or mixed curves, or effect the other way; inactive = flat fitted curve, though single readings scatter.
endpoint-name: viability change, negative = cytotoxic

CCCCCCCCCCCCCCCCCC(=O)OCCCCCCCCCCCCCC(C)C    inactive
C[C@H]1C[C@H]2[C@@H]3CCC4=CC(=O)C=C[C@]4(C)[C@@]3(Cl)[C@@H](O)C[C@]2(C)[C@@]1(O)C(=O)CO    inactive
CN(C)CCCO[C@@H]1[C@H]2OC(C)(C)O[C@H]2O[C@@H]1C(O)CO (stereo partly specified)    inactive
O=C1CCCCCCCCCCCN1    inactive
COc1ccc(CCO)cc1    inactive

For reference, reported viability change, negative = cytotoxic for "O=C1c2ccccc2C(=O)c2cc(Cl)ccc21" stands at -0.399% [at 8.39 µM] (inactive)
